- tgt: WT BTK protein (Homo sapiens)
- Construct: measured for intracellular BTK protein levels by Western blotting; endogenous in cells; host or cells: TMD-8 or RAMOS cells
- procedureDetails: BTK protein degradation assay (Western blotting), WT BTK
- Type: cell-based
- measurementContext: concentration range accounting for 50% degradation of WT BTK protein, TMD-8 or RAMOS cells, 24 hours
testReadout: DC50

Here's what some known entries look like.
molecule	tgt	DC50
Cc1cccc(C)c1Nc1nn(C)c2nc(Nc3ccc(C4CN(CC5CCN(c6ccc7c(c6)C(=O)N(C6CCC(=O)NC6=O)C7=O)CC5)C4)cc3)ncc12 (centres unmarked) [Compound 175]	WT BTK protein (Homo sapiens)	0.1 to 10 nM
Cc1cccc(C)c1Nc1nn(C)c2nc(Nc3ccc4c(c3)CN(C3CN(C[C@@H]5CCN(c6ccc7c(c6)C(=O)N(C6CCC(=O)NC6=O)C7=O)C5)C3)CC4)ncc12 (some centres unmarked) [Compound 151]	WT BTK protein (Homo sapiens)	0.1 to 10 nM
Cc1cccc(C)c1Nc1nn(C)c2nc(Nc3ccc4c(c3)CN(CC3CN(C(=O)COc5ccc6c(c5)C(=O)N(C5CCC(=O)NC5=O)C6=O)C3)CC4)ncc12 (centres unmarked) [Compound 49]	WT BTK protein (Homo sapiens)	10 to 1000 nM
Cc1cccc(C)c1Nc1nn(C)c2nc(Nc3ccc(N4CCN(CC5CN(c6ccc7c(c6)C(=O)N(C6CCC(=O)NC6=O)C7=O)C5)[C@H](C)C4)cc3)ncc12 (some centres unmarked) [Compound 186]	WT BTK protein (Homo sapiens)	0.1 to 10 nM

// next entry
Data request: Lab note: need DC50 with WT BTK protein (Homo sapiens) for entry Cc1cccc(C)c1Nc1nn(C)c2nc(Nc3ccc4c(c3)CN(CCC3CCN(c5ccc6c(c5)C(=O)N(C5CCC(=O)NC5=O)C6=O)CC3)CC4)ncc12 (centres unmarked) [Compound 146] , please look it up.
Data returned: 0.1 to 10 nM

----------
Item-by-item account of DC50
- tgt: C481S BTK protein (Homo sapiens, UniProt Q06187, C481S)
- Construct: expressed in transfected cells; host or cells: 293T BTK MUT (C481S) cells
- Sequence (Q06187 whole entry C481S): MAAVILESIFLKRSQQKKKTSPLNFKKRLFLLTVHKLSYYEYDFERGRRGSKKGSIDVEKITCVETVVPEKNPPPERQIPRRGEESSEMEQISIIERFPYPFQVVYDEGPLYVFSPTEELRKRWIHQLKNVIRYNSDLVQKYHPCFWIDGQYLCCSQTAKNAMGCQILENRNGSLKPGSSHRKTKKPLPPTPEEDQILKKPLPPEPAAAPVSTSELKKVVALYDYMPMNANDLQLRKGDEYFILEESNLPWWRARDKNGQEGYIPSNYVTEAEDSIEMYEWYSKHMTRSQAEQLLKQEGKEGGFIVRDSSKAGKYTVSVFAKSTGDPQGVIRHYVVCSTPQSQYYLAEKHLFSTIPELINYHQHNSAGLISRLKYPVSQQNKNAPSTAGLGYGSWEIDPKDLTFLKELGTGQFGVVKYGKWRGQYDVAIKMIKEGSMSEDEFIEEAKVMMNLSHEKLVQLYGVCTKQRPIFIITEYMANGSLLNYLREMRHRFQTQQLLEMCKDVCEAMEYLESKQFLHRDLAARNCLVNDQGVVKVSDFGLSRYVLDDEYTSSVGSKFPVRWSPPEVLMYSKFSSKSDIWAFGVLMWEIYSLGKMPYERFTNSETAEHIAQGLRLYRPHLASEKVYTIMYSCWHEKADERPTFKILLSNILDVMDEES
- procedureDetails: BTK protein degradation assay (Western blotting), C481S BTK
- Type: cell-based
- measurementContext: concentration range accounting for 50% degradation of C481S BTK protein, 293T BTK MUT (C481S) cells

molecule	tgt	DC50
Cc1cccc(C)c1Nc1nn(C)c2nc(Nc3ccc4c(c3)CN(C(=O)COCCOCCNc3cccc5c3C(=O)N(C3CCC(=O)NC3=O)C5=O)CC4)ncc12 (stereo not shown)	C481S BTK protein (Homo sapiens, UniProt Q06187, C481S)	1000 to 10000 nM
Cc1cccc(C)c1Nc1nn(C)c2nc(Nc3ccc4c(c3)CN(C(=O)CCOCCOCCOCCOCCNC(=O)CN3CCN(c5ccc6c(c5)C(=O)N(C5CCC(=O)NC5=O)C6=O)CC3)CC4)ncc12 (stereo not shown)	C481S BTK protein (Homo sapiens, UniProt Q06187, C481S)	> 10000 nM
COCCOc1cc(C)c(Nc2nn(C)c3nc(Nc4ccc5c(c4)C(C)(C)N(C(=O)CCC(=O)Nc4ccc(OCCOCCOCCOCCNc6cccc7c6C(=O)N(C6CCC(=O)NC6=O)C7=O)cc4)CC5)ncc23)c(C)c1 (stereo not shown)	C481S BTK protein (Homo sapiens, UniProt Q06187, C481S)	10 to 1000 nM

Data request: Endpoint output: DC50 of Cc1cccc(C)c1Nc1nn(C)c2nc(Nc3ccc4c(c3)CN(C(=O)COCCOCCNc3ccc5c(c3)C(=O)N(C3CCC(=O)NC3=O)C5=O)CC4)ncc12 (stereo not shown) . Value?
Data returned: 10 to 1000 nM

Data request: Value lookup for DC50; key = Cc1cccc(C)c1Nc1nn(C)c2nc(Nc3ccc4c(c3)CN(C3CN(CC5CCN(c6ccc7c(c6)C(=O)N(C6CCC(=O)NC6=O)C7=O)CC5)C3)CC4)ncc12 (stereo not shown)
Data returned: 0.1 to 10 nM

Data request: What value of DC50 has been reported for the following molecule? Cc1cccc(C)c1Nc1nn(C)c2nc(Nc3ccc4c(c3)CN(C(=O)COCCOCCOCCOCCNC(=O)COc3ccc5c(c3)C(=O)N(C3CCC(=O)NC3=O)C5=O)CC4)ncc12 (stereo not shown)
Data returned: > 10000 nM

Data request: Which measured DC50 value corresponds to Cc1cccc(C)c1Nc1nn(C)c2nc(Nc3ccc4c(c3)CN(CCOCCOCC(=O)Nc3ccc5c(c3)C(=O)N(C3CCC(=O)NC3=O)C5=O)CC4)ncc12 (stereo not shown) ?
Data returned: 1000 to 10000 nM

Data request: What does the data say about its DC50? Entry: Cc1cccc(C)c1Nc1nn(C)c2nc(Nc3ccc4c(c3)CN(C(=O)C3CCN(C(=O)COc5ccc6nnn(C7CCC(=O)NC7=O)c(=O)c6c5)CC3)CC4)ncc12 (stereo not shown)
Data returned: 10 to 1000 nM

Data request: Please report the recorded DC50 for Cc1cccc(C)c1Nc1nn(C)c2nc(Nc3ccc4c(c3)CN(C(=O)[C@@H]3CCCN3C(=O)CNc3ccc5c(c3)C(=O)N(C3CCC(=O)NC3=O)C5=O)CC4)ncc12 (stereo partly shown) .
Data returned: 10 to 1000 nM

Data request: Fill blank: measured DC50 of the molecule Cc1cccc(C)c1Nc1nn(C)c2nc(Nc3ccc4c(c3)CN(CC3CCN(C(=O)C5CCN(c6ccc7c(c6)C(=O)N(C6CCC(=O)NC6=O)C7=O)CC5)CC3)CC4)ncc12 (stereo not shown) is ____.
Data returned: 0.1 to 10 nM

Data request: Which DC50 is reported for this molecule? Cc1cccc(C)c1Nc1nn(C)c2nc(Nc3ccc4c(c3)CN(CCOCCNC(=O)C3CCN(c5cccc6c5C(=O)N(C5CCC(=O)NC5=O)C6=O)CC3)CC4)ncc12 (stereo not shown)
Data returned: 1000 to 10000 nM

Data request: Dear colleague, I am looking for the recorded DC50 of the following molecule: Cc1cccc(C)c1Nc1nn(C)c2nc(Nc3ccc4c(c3)CN(C(=O)C3CCN(C(=O)C5CCN(c6ccc7c(c6)C(=O)N(C6CCC(=O)NC6=O)C7=O)CC5)CC3)CC4)ncc12 (stereo not shown)
Data returned: 10 to 1000 nM

Data request: Need DC50 of Cc1cccc(C)c1Nc1nn(C)c2nc(Nc3ccc4c(c3)CN(CC3CCN(C(=O)C5CCN(c6ccc7c(=O)n(C8CCC(=O)NC8=O)nnc7c6)CC5)CC3)CC4)ncc12 (stereo not shown) , thanks.
Data returned: 0.1 to 10 nM

----------
- tgt: WT BTK protein (Homo sapiens, UniProt Q06187)
- Construct: measured for intracellular BTK protein levels by Western blotting; endogenous in cells; host or cells: TMD-8 or RAMOS cells
- procedureDetails: BTK protein degradation assay (Western blotting), WT BTK
- Assay type: cell-based
- measurementContext: concentration range accounting for 50% degradation of WT BTK protein, TMD-8 or RAMOS cells, 24 hours
testReadout: DC50

Below, each entry is followed by its recorded DC50 result.
compound	tgt	DC50
Cc1cccc(C)c1Nc1nn(C)c2nc(Nc3ccc4c(c3)CN(C(=O)c3cn(CCOCCOCCOCCNC(=O)CNc5cccc6c5C(=O)N(C5CCC(=O)NC5=O)C6=O)nn3)CC4)ncc12 (stereo not drawn)	WT BTK protein (Homo sapiens, UniProt Q06187)	10 to 1000 nM
Cc1cccc(C)c1Nc1nn(C)c2nc(Nc3ccc4c(c3)CN(C(=O)C3(F)CCN(c5ccc6c(c5)C(=O)N(C5CCC(=O)NC5=O)C6=O)CC3)CC4)ncc12 (stereo not drawn)	WT BTK protein (Homo sapiens, UniProt Q06187)	0.1 to 10 nM
Cc1cccc(C)c1Nc1nn(C)c2nc(Nc3ccc4c(c3)CN(CC3CCN(C(=O)C5CCN(c6cccc7nnn(C8CCC(=O)NC8=O)c(=O)c67)CC5)CC3)CC4)ncc12 (stereo not drawn)	WT BTK protein (Homo sapiens, UniProt Q06187)	0.1 to 10 nM
Cc1cccc(C)c1Nc1nn(C)c2nc(Nc3ccc4c(c3)CN(CC3CCN(Cc5ccc6nnn(C7CCC(=O)NC7=O)c(=O)c6c5)CC3)CC4)ncc12 (stereo not drawn)	WT BTK protein (Homo sapiens, UniProt Q06187)	10 to 1000 nM
Cc1cccc(C)c1Nc1nn(C)c2nc(Nc3ccc(C4CCN(C(=O)CN5CCN(c6ccc7c(c6)C(=O)N(C6CCC(=O)NC6=O)C7=O)CC5)CC4)c(F)c3)ncc12 (stereo not drawn)	WT BTK protein (Homo sapiens, UniProt Q06187)	0.1 to 10 nM

Data request: Field request: DC50 | item: Cc1cccc(C)c1Nc1nn(C)c2nc(Nc3ccc4c(c3)CN(CC3CCN(CC(=O)Nc5ccc6c(c5)CN(C5CCC(=O)NC5=O)C6=O)CC3)CC4)ncc12 (stereo not drawn)
Data returned: 0.1 to 10 nM

Data request: Item Cc1cccc(C)c1Nc1nn(C)c2nc(Nc3ccc4c(c3)CN(CCOCCOCC(=O)Nc3ccc5c(c3)C(=O)N(C3CCC(=O)NC3=O)C5=O)CC4)ncc12 (stereo not drawn) has what recorded DC50?
Data returned: 0.1 to 10 nM

Data request: Name the recorded DC50 for Cc1cccc(C)c1Nc1nn(C)c2nc(Nc3ccc4c(c3)CN(CC3CCN(c5ccc6c(c5)C(=O)N(C5CCC(=O)NC5=O)C6=O)CC3)C4)ncc12 (stereo not drawn) .
Data returned: 10 to 1000 nM

Data request: Would you mind telling me what DC50 value was observed for Cc1cccc(C)c1Nc1nn(C)c2nc(Nc3ccc4c(c3)CN(CC3CN(C(=O)C5CCN(c6ccc7c(c6)C(=O)N(C6CCC(=O)NC6=O)C7=O)CC5)C3)CC4)ncc12 (stereo not drawn) ?
Data returned: 0.1 to 10 nM
